Ref: ChEMBL document CHEMBL1134534

target: UniProt P35348; test: Experimental binding affinity for alpha-1A-adrenergic receptor
Please mark Condition met if the recorded pK1a is equal to or greater than 9, and Condition not met if it falls below.

[[record]]
chemical_structure = "COc1ccccc1N1CCN(CCCNc2cc(-c3ccccc3)nn(C)c2=O)CC1"
assayed_target = "UniProt P35348"
qualitative_label = "Condition not met"

[[record]]
chemical_structure = "COc1ccccc1N1CCN(CCNc2c(C(C)=O)c(C)nn(C)c2=O)CC1"
assayed_target = "UniProt P35348"
qualitative_label = "Condition not met"


# next molecule below
Could you please find out whether COc1ccccc1N1CCN(c2c(C(C)=O)c(-c3ccccc3)nn(C)c2=O)CC1 has pK1a that meets 9 or exceeds it?
Condition not met

====

molecular target: Alpha-1B adrenergic receptor (Homo sapiens) (UniProt P35368); test: Experimental binding affinity for alpha-1B-adrenergic receptor
Sequence (P35368 whole entry): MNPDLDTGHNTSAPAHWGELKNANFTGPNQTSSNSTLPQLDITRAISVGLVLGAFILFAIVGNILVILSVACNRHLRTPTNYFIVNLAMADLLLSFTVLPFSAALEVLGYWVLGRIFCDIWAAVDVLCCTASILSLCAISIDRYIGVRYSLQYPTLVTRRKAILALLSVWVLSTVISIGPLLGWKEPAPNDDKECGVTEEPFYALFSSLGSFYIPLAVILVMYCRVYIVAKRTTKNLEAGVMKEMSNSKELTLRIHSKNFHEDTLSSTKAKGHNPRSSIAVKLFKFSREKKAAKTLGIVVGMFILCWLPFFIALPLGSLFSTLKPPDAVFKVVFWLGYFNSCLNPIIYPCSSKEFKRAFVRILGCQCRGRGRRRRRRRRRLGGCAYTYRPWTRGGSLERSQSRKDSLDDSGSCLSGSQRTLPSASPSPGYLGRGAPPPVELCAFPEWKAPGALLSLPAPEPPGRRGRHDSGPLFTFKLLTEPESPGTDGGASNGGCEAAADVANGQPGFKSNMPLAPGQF
Please respond with reported pK1b for every item in the list.
One number for each entry.

Known results for compounds:
[[record]]
chemical_structure = "COc1ccccc1N1CCN(CCNc2cc(C)nn(C)c2=O)CC1"
metric = "pK1b"
measured = 7.48

[[record]]
chemical_structure = "COc1ccccc1N1CCN(CCNc2c(C(=O)C(C)C)c(-c3ccccc3)nn(C)c2=O)CC1"
metric = "pK1b"
measured = 9.19

[[record]]
chemical_structure = "COc1ccccc1N1CCN(CCNc2cc(-c3ccccc3)nn(C)c2=O)CC1"
metric = "pK1b"
measured = 8.7

[[record]]
chemical_structure = "COc1ccc(Cl)cc1N1CCN(CCNc2cc(-c3ccccc3)nn(C)c2=O)CC1"
metric = "pK1b"
measured = 8.75


Please go through the list and note pK1b for each compound.
1. COc1ccccc1N1CCN(CCCNc2c(C(C)=O)c(C)nn(C)c2=O)CC1
2. COc1ccc(Cl)cc1N1CCN(CCNc2c(C(C)=O)c(-c3ccccc3)nn(C)c2=O)CC1
3. CCC(=O)c1c(-c2ccccc2)nn(C)c(=O)c1NCCN1CCN(c2ccccc2OC)CC1
4. COc1ccccc1N1CCN(c2c(C(C)=O)c(-c3ccccc3)nn(C)c2=O)CC1
5. COc1ccc(Cl)cc1N1CCN(CCCNc2cc(-c3ccccc3)nn(C)c2=O)CC1

7.27
8.4
8.84
6.59
8.7

Sample COc1ccccc1N1CCN(CCNc2c(C(C)=O)c(C)nn(C)c2=O)CC1 — what was its pK1b?
7.3

====

Kindly supply the reported pEC50 values for the records listed here.
target: 5-hydroxytryptamine receptor 1A (Homo sapiens, UniProt P08908); experiment: Ability to influence the binding of [35S]GTP-gamma-S, to HeLa cell membranes expressing the human 5-hydroxytryptamine 1A receptor
Sequence (P08908 whole entry): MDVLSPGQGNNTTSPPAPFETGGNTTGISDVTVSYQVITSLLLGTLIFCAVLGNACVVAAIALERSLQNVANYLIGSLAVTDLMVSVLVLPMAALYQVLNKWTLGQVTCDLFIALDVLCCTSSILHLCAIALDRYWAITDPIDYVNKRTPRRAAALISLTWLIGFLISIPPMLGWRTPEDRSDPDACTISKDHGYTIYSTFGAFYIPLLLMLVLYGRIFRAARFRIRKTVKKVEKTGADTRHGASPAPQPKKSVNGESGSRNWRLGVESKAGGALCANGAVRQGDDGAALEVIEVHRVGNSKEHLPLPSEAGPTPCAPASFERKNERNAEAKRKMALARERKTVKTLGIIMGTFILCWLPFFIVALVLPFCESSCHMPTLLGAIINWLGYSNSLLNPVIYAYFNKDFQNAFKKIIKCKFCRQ
One number for each entry, as −log10 of the molar value.

[[record]]
chemical_structure = "CCC(=O)c1c(-c2ccccc2)nn(C)c(=O)c1NCCN1CCN(c2ccccc2OC)CC1"
assayed_target = "5-hydroxytryptamine receptor 1A (Homo sapiens, UniProt P08908)"
measured = 8.60


Consider the additional compound presented here.
I would be grateful if you could share the reported pEC50 for COc1ccccc1N1CCN(CCCNc2c(C(C)=O)c(C)nn(C)c2=O)CC1 .
8.80

====

target: Alpha-1A adrenergic receptor (Homo sapiens) (UniProt P35348); assay: Experimental binding affinity for alpha-1A-adrenergic receptor
Answer each item with its documented pK1a.
Answers are plain numbers.

[[record]]
chemical_structure = "COc1ccccc1N1CCN(CCNc2c(C(=O)C(C)C)c(-c3ccccc3)nn(C)c2=O)CC1"
metric = "pK1a"
measured = 9.74


Please state pK1a for every molecule in the list that follows.
1. COc1ccccc1N1CCN(CCNc2c(C(C)=O)c(-c3ccccc3)nn(C)c2=O)CC1
2. COc1ccccc1N1CCN(CCCNc2c(C(C)=O)c(C)nn(C)c2=O)CC1
3. CC(=O)c1c(-c2ccccc2)nn(C)c(=O)c1NCCN1CCN(c2ccccc2F)CC1
4. CCC(=O)c1c(-c2ccccc2)nn(C)c(=O)c1NCCN1CCN(c2ccccc2OC)CC1

[9.46, 9.09, 9.49, 9.72]

Dear colleague, could you send me pK1a for each of the items below? Thanks.
1. COc1ccccc1N1CCN(CCCNc2c(C(C)=O)c(-c3ccccc3)nn(C)c2=O)CC1
2. COc1ccccc1N1CCN(CCNc2cc(-c3ccccc3)nn(C)c2=O)CC1
3. COc1ccc(Cl)cc1N1CCN(CCNc2cc(-c3ccccc3)nn(C)c2=O)CC1

8.82
9.66
9

====

Target: Alpha-1A adrenergic receptor (Homo sapiens)
Sequence (P35348 whole entry): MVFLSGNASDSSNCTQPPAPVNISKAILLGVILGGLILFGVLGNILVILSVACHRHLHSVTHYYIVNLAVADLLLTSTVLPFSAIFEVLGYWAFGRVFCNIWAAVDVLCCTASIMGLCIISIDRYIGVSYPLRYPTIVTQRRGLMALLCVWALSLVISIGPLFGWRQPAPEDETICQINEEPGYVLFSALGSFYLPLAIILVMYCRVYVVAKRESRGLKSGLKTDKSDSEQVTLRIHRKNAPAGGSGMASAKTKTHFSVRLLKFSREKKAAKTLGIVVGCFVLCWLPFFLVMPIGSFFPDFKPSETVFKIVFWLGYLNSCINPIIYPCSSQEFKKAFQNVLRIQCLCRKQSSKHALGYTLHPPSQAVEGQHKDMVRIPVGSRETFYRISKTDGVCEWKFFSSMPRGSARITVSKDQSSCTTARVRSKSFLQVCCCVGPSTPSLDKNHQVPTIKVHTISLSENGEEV
metric: pKi
Answers are plain numbers, as −log10 of the molar value.

Examples with their reported pKi follow.
[[record]]
chemical_structure = "COc1ccc(Cl)cc1N1CCN(CCCNc2c(C(C)=O)c(C)nn(C)c2=O)CC1"
assayed_target = "Alpha-1A adrenergic receptor (Homo sapiens)"
metric = "pKi"
measured = 9.28

[[record]]
chemical_structure = "COc1ccc(Cl)cc1N1CCN(CCNc2cc(-c3ccccc3)nn(C)c2=O)CC1"
assayed_target = "Alpha-1A adrenergic receptor (Homo sapiens)"
metric = "pKi"
measured = 9.00

[[record]]
chemical_structure = "COc1ccccc1N1CCN(c2c(C(C)=O)c(-c3ccccc3)nn(C)c2=O)CC1"
assayed_target = "Alpha-1A adrenergic receptor (Homo sapiens)"
metric = "pKi"
measured = 6.79

[[record]]
chemical_structure = "COc1ccccc1N1CCN(CCNc2cc(C)nn(C)c2=O)CC1"
assayed_target = "Alpha-1A adrenergic receptor (Homo sapiens)"
metric = "pKi"
measured = 7.73

[[record]]
chemical_structure = "CC(=O)c1c(-c2ccccc2)nn(C)c(=O)c1NCCN1CCN(c2ccccc2Cl)CC1"
assayed_target = "Alpha-1A adrenergic receptor (Homo sapiens)"
metric = "pKi"
measured = 9.52


Hey, can you go through the list below and give me pKi for every item?
1. COc1ccc(Cl)cc1N1CCN(CCCNc2cc(-c3ccccc3)nn(C)c2=O)CC1
2. COc1ccc(Cl)cc1N1CCN(CCCNc2c(C(C)=O)c(-c3ccccc3)nn(C)c2=O)CC1
3. COc1ccccc1N1CCN(CCNc2c(C(C)=O)c(C)nn(C)c2=O)CC1

1: 8.70; 2: 9.36; 3: 8.64

====

target: Alpha-1D adrenergic receptor (Homo sapiens); test: Experimental binding affinity for alpha-1D-adrenergic receptor
metric: pK1d
One number for each entry.

Could you tell me pK1d for each of these molecules? They are listed below.
1. COc1ccc(Cl)cc1N1CCN(CCCCNc2c(C(C)=O)c(C)nn(C)c2=O)CC1
2. COc1ccccc1N1CCN(CCNc2cc(C)nn(C)c2=O)CC1
3. COc1ccccc1N1CCN(CCNc2c(C(C)=O)c(C)nn(C)c2=O)CC1
4. CC(=O)c1c(-c2ccccc2)nn(C)c(=O)c1NCCN1CCN(c2ccccc2F)CC1
5. COc1ccccc1N1CCN(CCCNc2c(C(C)=O)c(C)nn(C)c2=O)CC1
6. COc1ccc(Cl)cc1N1CCN(CCNc2cc(-c3ccccc3)nn(C)c2=O)CC1

[8.3, 7.75, 8.5, 9.31, 7.46, 8.97]

====

For each record, write down the corresponding pK1d.
biological target: Alpha-1D adrenergic receptor (Homo sapiens) (UniProt P25100); assay: Experimental binding affinity for alpha-1D-adrenergic receptor
Sequence (P25100 whole entry): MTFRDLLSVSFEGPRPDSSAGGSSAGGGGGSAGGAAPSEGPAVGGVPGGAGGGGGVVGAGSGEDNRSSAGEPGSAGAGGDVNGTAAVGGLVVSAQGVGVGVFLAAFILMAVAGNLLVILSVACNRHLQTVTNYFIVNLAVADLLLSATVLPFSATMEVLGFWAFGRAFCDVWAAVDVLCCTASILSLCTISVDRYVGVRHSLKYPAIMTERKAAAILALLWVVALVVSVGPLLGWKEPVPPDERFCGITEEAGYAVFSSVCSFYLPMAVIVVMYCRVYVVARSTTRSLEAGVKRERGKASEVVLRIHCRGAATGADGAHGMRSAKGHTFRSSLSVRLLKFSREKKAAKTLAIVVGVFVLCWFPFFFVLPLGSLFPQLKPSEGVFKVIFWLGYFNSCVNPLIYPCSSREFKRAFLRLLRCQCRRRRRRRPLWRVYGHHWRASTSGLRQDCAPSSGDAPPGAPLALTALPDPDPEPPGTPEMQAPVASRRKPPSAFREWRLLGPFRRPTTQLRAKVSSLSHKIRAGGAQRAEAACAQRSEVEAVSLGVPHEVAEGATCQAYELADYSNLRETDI
Give bare numbers.

Answered examples (2):
[[record]]
chemical_structure = "CCC(=O)c1c(-c2ccccc2)nn(C)c(=O)c1NCCN1CCN(c2ccccc2OC)CC1"
assayed_target = "Alpha-1D adrenergic receptor (Homo sapiens) (UniProt P25100)"
measured = 9.6

[[record]]
chemical_structure = "COc1ccccc1N1CCN(CCNc2c(C(=O)C(C)C)c(-c3ccccc3)nn(C)c2=O)CC1"
assayed_target = "Alpha-1D adrenergic receptor (Homo sapiens) (UniProt P25100)"
measured = 9.37


For each entry beneath this line, provide reported pK1d.
1. COc1ccc(Cl)cc1N1CCN(CCNc2c(C(C)=O)c(-c3ccccc3)nn(C)c2=O)CC1
2. COc1ccc(Cl)cc1N1CCN(CCCNc2c(C(C)=O)c(-c3ccccc3)nn(C)c2=O)CC1
3. COc1ccc(Cl)cc1N1CCN(CCCNc2cc(-c3ccccc3)nn(C)c2=O)CC1
4. COc1ccccc1N1CCN(CCNc2c(C(C)=O)c(-c3ccccc3)nn(C)c2=O)CC1
5. COc1ccccc1N1CCN(CCNc2cc(-c3ccccc3)nn(C)c2=O)CC1
6. CC(=O)c1c(-c2ccccc2)nn(C)c(=O)c1NCCN1CCN(c2ccccc2Cl)CC1

9.39
8.41
8.53
9.89
7.93
9.6

Report pK1d for COc1ccc(Cl)cc1N1CCN(CCCNc2c(C(C)=O)c(C)nn(C)c2=O)CC1 please.
8.27
